Biological target: Bacterial 70S ribosome
Assay: Inhibition of Mycobacterium smegmatis ribosome containing wild type ribosomal RNA A-site in rabbit reticulocyte lysates assessed as reduction in ribosome-mediated protein synthesis in presence of S-30 extracts by fire fly luciferase synthesis based cell-free translation assay
pIC50: −log10 of the molar value.
Record T whenever pIC50 is at 6 or higher; record F when lower.

INSERT INTO assay_data (compound, group_label) VALUES
  ('NC[C@@H]1O[C@H](O[C@H]2[C@@H](O)[C@H](O[C@@H]3[C@@H](O)[C@H](N)C[C@H](N)[C@H]3O[C@H]3O[C@H](CO)[C@@H](O)[C@H](O)[C@H]3N)O[C@@H]2CO)[C@H](N)[C@@H](O)[C@@H]1O [PAROMOMYCIN]', 'T'),
  ('NC[C@@H]1O[C@H](O[C@H]2[C@@H](O)[C@H](O[C@@H]3[C@@H](O)[C@H](N)C[C@H](N)[C@H]3O[C@H]3O[C@H](CO)[C@@H](O[C@H]4O[C@H](CO)[C@@H](N)[C@H](O)[C@H]4O)[C@H](O)[C@H]3N)O[C@@H]2CO)[C@H](N)[C@@H](O)[C@@H]1O', 'T'),
  ('CN[C@@H]1[C@@H](O[C@H]2O[C@H](CO)[C@@H](N)[C@H](O)[C@H]2O)O[C@H]2C[C@@H](N)[C@@H](O[C@H]3[C@H](O)[C@@H](O)[C@H](N)C[C@@H]3N)O[C@@H]2[C@@H]1O [APRAMYCIN]', 'T'),
  ('NC[C@@H]1O[C@H](O[C@H]2[C@@H](O)[C@H](O[C@@H]3[C@@H](O)[C@H](N)C[C@H](N)[C@H]3O[C@H]3O[C@H](CO)[C@@H](OCO[C@H]4O[C@H](CO)[C@@H](O)[C@H](O)[C@H]4O)[C@H](O)[C@H]3N)O[C@@H]2CO)[C@H](N)[C@@H](O)[C@@H]1O', 'T'),
  ('NC[C@@H]1O[C@H](O[C@H]2[C@@H](O)[C@H](O[C@@H]3[C@@H](O)[C@H](N)C[C@H](N)[C@H]3O[C@H]3O[C@H](CO)[C@@H](O[C@@H]4O[C@H](CO)[C@H](O)[C@H](O)[C@H]4O)[C@H](O)[C@H]3N)O[C@@H]2CO)[C@H](N)[C@@H](O)[C@@H]1O', 'F'),
  ('NC[C@@H]1O[C@H](O[C@H]2[C@@H](O)[C@H](O[C@@H]3[C@@H](O)[C@H](N)C[C@H](N)[C@H]3O[C@H]3O[C@H](CO)[C@@H](O[C@@H]4O[C@H](CO)[C@@H](O)[C@H](O)[C@@H]4O)[C@H](O)[C@H]3N)O[C@@H]2CO)[C@H](N)[C@@H](O)[C@@H]1O', 'T');

* * *

Recorded MIC values for a group of compounds are listed next.
Tested on: Escherichia coli
Test: Antibacterial activity against Escherichia coli isolate 001 by broth microdilution assay
Assay type: functional
measured_endpoint: MIC (µg/mL)

INSERT INTO measurements (compound, unit_of_measure, operator, readout_number) VALUES
  ('NC[C@@H]1O[C@H](O[C@H]2[C@@H](O)[C@H](O[C@@H]3[C@@H](O)[C@H](N)C[C@H](N)[C@H]3O[C@H]3O[C@@H]4COC(CCc5ccccc5)O[C@H]4[C@H](O)[C@H]3N)O[C@@H]2CO)[C@H](N)[C@@H](O)[C@@H]1O (some centres undefined)', 'µg/mL', '=', 32),
  ('NC[C@@H]1O[C@H](O[C@H]2[C@@H](O)[C@H](O[C@@H]3[C@@H](O)[C@H](N)C[C@H](N)[C@H]3O[C@H]3O[C@H](CO)[C@@H](O[C@H]4O[C@H](CO)[C@H](O)[C@H](O)[C@H]4O)[C@H](O)[C@H]3N)O[C@@H]2CO)[C@H](N)[C@@H](O)[C@@H]1O', 'µg/mL', '>', 128),
  ('NC[C@@H]1O[C@H](O[C@H]2[C@@H](O)[C@H](O[C@@H]3[C@@H](O)[C@H](N)C[C@H](N)[C@H]3O[C@H]3O[C@H](CO)[C@@H](O)[C@H](O)[C@H]3N)O[C@@H]2CO)[C@H](N)[C@@H](O)[C@@H]1O [PAROMOMYCIN]', 'µg/mL', '=', 16),
  ('CN[C@@H]1[C@@H](O[C@H]2O[C@H](CO)[C@@H](N)[C@H](O)[C@H]2O)O[C@H]2C[C@@H](N)[C@@H](O[C@H]3[C@H](O)[C@@H](O)[C@H](N)C[C@@H]3N)O[C@@H]2[C@@H]1O [APRAMYCIN]', 'µg/mL', '=', 16);

* * *

Tested on: Ribosome
Test: Inhibition of ribosome-mediated protein synthesis in rabbit reticulocyte lysates in presence of S-30 extracts by fire fly luciferase synthesis based cell-free translation assay
Parameters: species or system Oryctolagus cuniculus
Simple rule here: IC50 less than 30 µg/mL is condition met, otherwise condition not met.

INSERT INTO measurements (compound_smiles, assayed_target, group_label) VALUES
  ('NC[C@@H]1O[C@H](O[C@H]2[C@@H](O)[C@H](O[C@@H]3[C@@H](O)[C@H](N)C[C@H](N)[C@H]3O[C@H]3O[C@H](CO)[C@@H](O[C@@H]4O[C@H](CO)[C@@H](N)[C@H](O)[C@H]4O)[C@H](O)[C@H]3N)O[C@@H]2CO)[C@H](N)[C@@H](O)[C@@H]1O', 'Ribosome', 'condition not met'),
  ('NC[C@@H]1O[C@H](O[C@H]2[C@@H](O)[C@H](O[C@@H]3[C@@H](O)[C@H](N)C[C@H](N)[C@H]3O[C@H]3O[C@H](CO)[C@@H](O[C@H]4O[C@H](CO)[C@@H](N)[C@H](O)[C@H]4O)[C@H](O)[C@H]3N)O[C@@H]2CO)[C@H](N)[C@@H](O)[C@@H]1O', 'Ribosome', 'condition met'),
  ('NC[C@@H]1O[C@H](O[C@H]2[C@@H](O)[C@H](O[C@@H]3[C@@H](O)[C@H](N)C[C@H](N)[C@H]3O[C@H]3O[C@H](CO)[C@@H](O[C@H]4O[C@H](CO)[C@@H](O)[C@H](O)[C@@H]4O)[C@H](O)[C@H]3N)O[C@@H]2CO)[C@H](N)[C@@H](O)[C@@H]1O', 'Ribosome', 'condition not met'),
  ('NC[C@@H]1O[C@H](O[C@H]2[C@@H](O)[C@H](O[C@@H]3[C@@H](O)[C@H](N)C[C@H](N)[C@H]3O[C@H]3O[C@H](CO)[C@@H](O[C@@H]4O[C@H](CO)[C@@H](O)[C@H](O)[C@H]4O)[C@H](O)[C@H]3N)O[C@@H]2CO)[C@H](N)[C@@H](O)[C@@H]1O', 'Ribosome', 'condition not met'),
  ('NC[C@@H]1O[C@H](O[C@H]2[C@@H](O)[C@H](O[C@@H]3[C@@H](O)[C@H](N)C[C@H](N)[C@H]3O[C@H]3O[C@H](CO)[C@@H](O[C@@H]4O[C@H](CO)[C@@H](O)[C@H](O)[C@@H]4O)[C@H](O)[C@H]3N)O[C@@H]2CO)[C@H](N)[C@@H](O)[C@@H]1O', 'Ribosome', 'condition not met'),
  ('NC[C@@H]1O[C@H](O[C@H]2[C@@H](O)[C@H](O[C@@H]3[C@@H](O)[C@H](N)C[C@H](N)[C@H]3O[C@H]3O[C@H](CO)[C@@H](O[C@H]4O[C@H](CO)[C@H](O)[C@H](O)[C@H]4O)[C@H](O)[C@H]3N)O[C@@H]2CO)[C@H](N)[C@@H](O)[C@@H]1O', 'Ribosome', 'condition met');

* * *

Test: Inhibition of human ribosome containing eukaryotic ribosomal RNA A-site Cyt14 allele in rabbit reticulocyte lysates assessed as reduction in ribosome-mediated protein synthesis in presence of S-30 extracts by fire fly luciferase synthesis based cell-free translation assay
Simple rule here: IC50 less than 50 µg/mL is yes, otherwise no.

INSERT INTO results (compound, group_label) VALUES
  ('NC[C@@H]1O[C@H](O[C@H]2[C@@H](O)[C@H](O[C@@H]3[C@@H](O)[C@H](N)C[C@H](N)[C@H]3O[C@H]3O[C@H](CO)[C@@H](O[C@@H]4O[C@H](CO)[C@H](O)[C@H](O)[C@H]4O)[C@H](O)[C@H]3N)O[C@@H]2CO)[C@H](N)[C@@H](O)[C@@H]1O', 'no'),
  ('NC[C@@H]1O[C@H](O[C@H]2[C@@H](O)[C@H](O[C@@H]3[C@@H](O)[C@H](N)C[C@H](N)[C@H]3O[C@H]3O[C@H](CO)[C@@H](O[C@H]4O[C@H](CO)[C@@H](O)[C@H](O)[C@H]4O)[C@H](O)[C@H]3N)O[C@@H]2CO)[C@H](N)[C@@H](O)[C@@H]1O', 'yes'),
  ('NC[C@@H]1O[C@H](O[C@H]2[C@@H](O)[C@H](O[C@@H]3[C@@H](O)[C@H](N)C[C@H](N)[C@H]3O[C@H]3O[C@H](CO)[C@@H](OCCCc4ccccc4)[C@H](O)[C@H]3N)O[C@@H]2CO)[C@H](N)[C@@H](O)[C@@H]1O', 'no'),
  ('NC[C@@H]1O[C@H](O[C@H]2[C@@H](O)[C@H](O[C@@H]3[C@@H](O)[C@H](N)C[C@H](N)[C@H]3O[C@H]3O[C@@H]4COC(CCc5ccccc5)O[C@H]4[C@H](O)[C@H]3N)O[C@@H]2CO)[C@H](N)[C@@H](O)[C@@H]1O (some centres not stated)', 'no'),
  ('NC[C@@H]1O[C@H](O[C@H]2[C@@H](O)[C@H](O[C@@H]3[C@@H](O)[C@H](N)C[C@H](N)[C@H]3O[C@H]3O[C@H](CO)[C@@H](O[C@@H]4O[C@H](CO)[C@@H](O)[C@H](O)[C@@H]4O)[C@H](O)[C@H]3N)O[C@@H]2CO)[C@H](N)[C@@H](O)[C@@H]1O', 'no'),
  ('NC[C@@H]1O[C@H](O[C@H]2[C@@H](O)[C@H](O[C@@H]3[C@@H](O)[C@H](N)C[C@H](N)[C@H]3O[C@H]3O[C@H](CO)[C@@H](O[C@H]4O[C@H](CO)[C@@H](N)[C@H](O)[C@H]4O)[C@H](O)[C@H]3N)O[C@@H]2CO)[C@H](N)[C@@H](O)[C@@H]1O', 'yes'),
  ('NC[C@@H]1O[C@H](O[C@H]2[C@@H](O)[C@H](O[C@@H]3[C@@H](O)[C@H](N)C[C@H](N)[C@H]3O[C@H]3O[C@H](CO)[C@@H](O[C@H]4O[C@H](CO)[C@@H](O)[C@H](O)[C@@H]4O)[C@H](O)[C@H]3N)O[C@@H]2CO)[C@H](N)[C@@H](O)[C@@H]1O', 'no');
